Molecular target: butyrylcholinesterase (BuChE) (Homo sapiens, UniProt P06276)
Sequence (P06276 29-602): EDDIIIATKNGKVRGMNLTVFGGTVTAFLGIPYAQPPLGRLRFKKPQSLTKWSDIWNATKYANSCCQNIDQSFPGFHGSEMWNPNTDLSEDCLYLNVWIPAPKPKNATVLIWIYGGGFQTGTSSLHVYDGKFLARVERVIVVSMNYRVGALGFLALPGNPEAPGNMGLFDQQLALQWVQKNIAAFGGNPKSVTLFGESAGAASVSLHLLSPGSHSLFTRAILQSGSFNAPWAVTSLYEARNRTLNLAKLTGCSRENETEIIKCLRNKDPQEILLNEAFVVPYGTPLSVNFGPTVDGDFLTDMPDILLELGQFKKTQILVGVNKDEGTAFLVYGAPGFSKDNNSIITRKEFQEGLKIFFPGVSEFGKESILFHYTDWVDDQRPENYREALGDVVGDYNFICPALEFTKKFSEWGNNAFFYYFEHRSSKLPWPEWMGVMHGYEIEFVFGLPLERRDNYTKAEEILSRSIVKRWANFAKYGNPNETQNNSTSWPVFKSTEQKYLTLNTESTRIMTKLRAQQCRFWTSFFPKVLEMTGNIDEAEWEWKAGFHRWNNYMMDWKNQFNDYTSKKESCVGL
Test: biochemical
Format: biochemical
Details: read-out: BuChE IC50 (µM ± SEM)
quantity: IC50 (µM)
Reply numerically in µM, unit not repeated.

CCOc1ccc(-c2nc3cc(OC)ccc3[nH]2)cc1OC [Compound 18] has a reported IC50 of 9.8

COc1ccc2[nH]c(-c3cc(Cl)cc(Cl)c3O)nc2c1 [Compound 10] has a reported IC50 of 0.4

COc1ccc2nc(-c3ccc(-c4nc5ccc(OC)cc5[nH]4)cc3)[nH]c2c1 [Compound 12] has a reported IC50 of 5.8

COc1ccc2[nH]c(-c3ccc(OC)c(O)c3)nc2c1 [Compound 9] has a reported IC50 of 2.1

COc1ccc2[nH]c(-c3cccc(O)c3)nc2c1 [Compound 16] has a reported IC50 of 2.1

COc1ccc2[nH]c(-c3cc(OC)c(O)c(OC)c3)nc2c1 [Compound 21] has a reported IC50 of 2.7

COc1ccc2[nH]c(-c3cccc([N+](=O)[O-])c3)nc2c1 [Compound 2] has a reported IC50 of 5.9

COc1ccc2[nH]c(-c3ccccc3[N+](=O)[O-])nc2c1 [Compound 4] has a reported IC50 of 3.6

COc1ccc2[nH]c(-c3ccc4ccccc4c3)nc2c1 [Compound 5] has a reported IC50 of 25.8

----------
Biological target: butyrylcholinesterase (BuChE) (Homo sapiens)
Experiment: biochemical
Type: biochemical
Conditions: read-out: BuChE IC50 (µM ± SEM)
Hi there, I'd appreciate the recorded IC50 for every entry that follows.
# do not omit the unit; it follows the number

Response field IC50 (butyrylcholinesterase (BuChE) (Homo sapiens)) for item COc1ccc2[nH]c(-c3ccc([N+](=O)[O-])cc3)nc2c1 [Compound 1] : 1.6 µM

Response field IC50 (butyrylcholinesterase (BuChE) (Homo sapiens)) for item COc1ccc2[nH]c(-c3ccc(Cl)cc3Cl)nc2c1 [Compound 11] : 0.3 µM

Response field IC50 (butyrylcholinesterase (BuChE) (Homo sapiens)) for item COc1ccc2[nH]c(-c3ccc(Cl)c(Cl)c3)nc2c1 [Compound 3] : 0.08 µM

Response field IC50 (butyrylcholinesterase (BuChE) (Homo sapiens)) for item COc1ccc2[nH]c(-c3ccc(OCc4ccccc4)cc3)nc2c1 [Compound 7] : 5.9 µM

Response field IC50 (butyrylcholinesterase (BuChE) (Homo sapiens)) for item COc1ccc2[nH]c(-c3ccc(O)cc3)nc2c1 [Compound 15] : 0.9 µM

Response field IC50 (butyrylcholinesterase (BuChE) (Homo sapiens)) for item COc1ccc2[nH]c(-c3cc(Br)ccc3OC)nc2c1 [Compound 17] : 3.9 µM

Response field IC50 (butyrylcholinesterase (BuChE) (Homo sapiens)) for item COc1ccc(-c2nc3cc(OC)ccc3[nH]2)c(OC)c1 [Compound 19] : 6.8 µM

Response field IC50 (butyrylcholinesterase (BuChE) (Homo sapiens)) for item COc1ccc2[nH]c(-c3ccc(N(C)C)cc3)nc2c1 [Compound 8] : 4.7 µM

Response field IC50 (butyrylcholinesterase (BuChE) (Homo sapiens)) for item COc1ccc2[nH]c(-c3ccc(C)cc3C)nc2c1 [Compound 6] : 5.1 µM
